molecular target: Cystic fibrosis transmembrane conductance regulator (Homo sapiens, UniProt P13569, F508DEL); experiment: Potentiation of CFTR F508del mutant (unknown origin) in FRT cells assessed as rescue of CFTR mutant incubated for 24 hrs in presence of VX-770; assay type: cell-based
Sequence (P13569 as listed by the source): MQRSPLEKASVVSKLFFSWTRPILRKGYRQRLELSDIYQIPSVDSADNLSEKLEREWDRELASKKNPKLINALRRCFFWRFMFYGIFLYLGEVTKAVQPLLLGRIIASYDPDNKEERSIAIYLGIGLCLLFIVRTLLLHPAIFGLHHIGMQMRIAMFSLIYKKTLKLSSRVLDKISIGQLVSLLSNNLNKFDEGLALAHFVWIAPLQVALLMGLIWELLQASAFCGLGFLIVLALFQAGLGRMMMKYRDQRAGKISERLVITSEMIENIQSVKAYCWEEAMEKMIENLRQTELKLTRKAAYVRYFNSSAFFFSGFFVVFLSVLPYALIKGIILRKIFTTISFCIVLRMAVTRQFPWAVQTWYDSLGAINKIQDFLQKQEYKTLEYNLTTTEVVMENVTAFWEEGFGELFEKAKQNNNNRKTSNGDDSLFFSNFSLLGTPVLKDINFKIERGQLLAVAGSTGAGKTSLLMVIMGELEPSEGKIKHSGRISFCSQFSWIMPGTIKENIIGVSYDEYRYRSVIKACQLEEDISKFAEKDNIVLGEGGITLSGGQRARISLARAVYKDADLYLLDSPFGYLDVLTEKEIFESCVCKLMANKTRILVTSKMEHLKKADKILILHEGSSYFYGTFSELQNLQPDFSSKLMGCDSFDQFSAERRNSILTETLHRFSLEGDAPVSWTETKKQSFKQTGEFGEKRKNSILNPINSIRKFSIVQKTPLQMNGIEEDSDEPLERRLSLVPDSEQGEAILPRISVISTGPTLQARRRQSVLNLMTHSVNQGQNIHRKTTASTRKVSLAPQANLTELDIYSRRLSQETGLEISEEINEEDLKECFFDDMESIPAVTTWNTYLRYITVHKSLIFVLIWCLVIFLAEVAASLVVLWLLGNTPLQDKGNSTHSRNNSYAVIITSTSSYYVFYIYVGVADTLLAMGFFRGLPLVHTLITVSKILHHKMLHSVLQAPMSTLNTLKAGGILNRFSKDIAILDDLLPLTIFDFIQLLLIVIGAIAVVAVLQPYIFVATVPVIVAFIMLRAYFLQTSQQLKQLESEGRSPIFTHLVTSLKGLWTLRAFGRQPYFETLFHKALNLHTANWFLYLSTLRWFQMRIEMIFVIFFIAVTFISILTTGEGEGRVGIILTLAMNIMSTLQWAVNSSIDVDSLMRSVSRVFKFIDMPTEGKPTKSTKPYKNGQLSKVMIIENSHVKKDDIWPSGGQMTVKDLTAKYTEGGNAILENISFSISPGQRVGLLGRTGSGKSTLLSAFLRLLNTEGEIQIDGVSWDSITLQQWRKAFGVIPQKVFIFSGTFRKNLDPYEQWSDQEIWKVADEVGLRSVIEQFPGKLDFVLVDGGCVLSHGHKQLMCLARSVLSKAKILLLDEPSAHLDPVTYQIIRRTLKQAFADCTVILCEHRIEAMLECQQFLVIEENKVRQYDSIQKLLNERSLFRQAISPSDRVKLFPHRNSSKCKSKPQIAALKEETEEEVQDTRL
readout.name: EC50
Answer shape: numeric part, then the unit.

// query Could you tell me which EC50 is on file for "Cc1ncccc1CNC(=O)c1ccc2c(c1)CC[C@@H]1C[C@@](O)(CCC(F)(F)F)CC[C@@]21Cc1ccccc1" ?
// result 400 nM

====

target: Cystic fibrosis transmembrane conductance regulator (Homo sapiens, UniProt P13569, F508DEL); assay: Activation of CFTR F508del mutant (unknown origin)
Label Fulfilled when EC50 is strictly below 3 µM; at or above that, label Not fulfilled.

Known results for molecules:
molecule: OC(C1=NC(c2ccc(Br)cc2)NN1)c1ccc(Br)cc1 (stereo unspecified)
group: Fulfilled
//
molecule: OC(C1=CNNN1c1ccc(Br)cc1)c1ccccc1Br (stereo unspecified)
group: Not fulfilled
//
molecule: Cc1ccc(S(=O)(=O)Nc2nc3ccccc3nc2C2CCOCC2)cc1
group: Fulfilled

// query EC50 under 3 µM? Item: "OCc1cccc(N2C=CN(c3ccccc3)N2)c1"
// result Fulfilled

// query Also, "O=P(O)(CCP(=O)(O)c1ccccc1)c1ccccc1" please.
// result Fulfilled

====

target: Cystic fibrosis transmembrane conductance regulator (Homo sapiens, UniProt P13569, G551D); test: Potentiation of CFTR G551D mutant (unknown origin) expressed in FRT cells
Sequence (P13569 whole entry G551D): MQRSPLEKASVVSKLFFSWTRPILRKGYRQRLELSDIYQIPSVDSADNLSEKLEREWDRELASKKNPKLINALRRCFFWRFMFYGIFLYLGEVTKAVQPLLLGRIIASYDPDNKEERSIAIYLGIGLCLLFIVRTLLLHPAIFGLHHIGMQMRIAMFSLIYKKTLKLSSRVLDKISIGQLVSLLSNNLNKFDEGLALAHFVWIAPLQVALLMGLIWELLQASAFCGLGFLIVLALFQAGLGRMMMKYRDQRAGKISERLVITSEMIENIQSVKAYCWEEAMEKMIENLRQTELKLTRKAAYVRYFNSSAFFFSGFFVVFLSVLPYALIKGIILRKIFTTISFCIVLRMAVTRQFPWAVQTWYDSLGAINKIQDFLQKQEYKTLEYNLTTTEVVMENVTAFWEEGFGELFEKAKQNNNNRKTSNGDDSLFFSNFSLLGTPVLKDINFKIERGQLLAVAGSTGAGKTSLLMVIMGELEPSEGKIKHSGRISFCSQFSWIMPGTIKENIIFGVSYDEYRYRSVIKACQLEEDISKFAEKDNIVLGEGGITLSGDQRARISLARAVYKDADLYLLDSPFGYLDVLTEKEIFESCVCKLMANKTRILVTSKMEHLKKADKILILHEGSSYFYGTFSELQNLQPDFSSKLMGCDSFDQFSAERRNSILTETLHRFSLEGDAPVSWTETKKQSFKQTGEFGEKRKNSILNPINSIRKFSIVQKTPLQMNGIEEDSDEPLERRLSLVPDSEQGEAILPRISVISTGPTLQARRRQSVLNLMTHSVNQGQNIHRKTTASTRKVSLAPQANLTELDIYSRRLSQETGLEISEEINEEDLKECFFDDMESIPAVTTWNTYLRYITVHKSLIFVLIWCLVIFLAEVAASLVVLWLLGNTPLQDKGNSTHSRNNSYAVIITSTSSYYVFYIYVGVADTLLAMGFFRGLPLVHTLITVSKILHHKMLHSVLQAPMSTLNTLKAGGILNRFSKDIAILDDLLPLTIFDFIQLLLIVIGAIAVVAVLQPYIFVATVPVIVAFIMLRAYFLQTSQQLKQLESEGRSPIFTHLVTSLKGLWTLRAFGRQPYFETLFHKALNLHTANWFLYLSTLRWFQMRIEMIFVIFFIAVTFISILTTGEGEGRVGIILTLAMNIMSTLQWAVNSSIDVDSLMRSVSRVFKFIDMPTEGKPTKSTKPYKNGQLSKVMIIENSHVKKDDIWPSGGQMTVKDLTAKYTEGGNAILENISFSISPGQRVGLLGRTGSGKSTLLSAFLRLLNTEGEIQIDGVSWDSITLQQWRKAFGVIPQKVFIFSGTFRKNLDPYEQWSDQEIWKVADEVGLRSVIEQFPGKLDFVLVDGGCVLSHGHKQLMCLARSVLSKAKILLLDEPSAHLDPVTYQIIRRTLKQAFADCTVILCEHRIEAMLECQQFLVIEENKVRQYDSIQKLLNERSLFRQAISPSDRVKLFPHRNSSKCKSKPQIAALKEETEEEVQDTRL
readout.name: pEC50
Recall that pEC50 is obtained by taking minus log10 of the concentration measured in molar.

// query Give its pEC50 value. Item: "O=C(Nc1ccc2cc[nH]c2c1)c1c[nH]c2ccccc2c1=O"
// result 7.00

====

biological target: Cystic fibrosis transmembrane conductance regulator (Homo sapiens, UniProt P13569, W1282X); assay: Potentiation of CFTR W1282X mutant (unknown origin) transfected in […] FRT cells in presence of forskolin/VX-770
readout.name: pEC50
pEC50 is a log-scale quantity: -log10 of the concentration expressed in molar.

// query What does the data say about its pEC50? Entry: CCCCN1CC(S(=O)(=O)Nc2ccc(CC)cc2)c2cccnc21 (stereo unspecified)
// result 6.00

====

molecular target: Cystic fibrosis transmembrane conductance regulator (Homo sapiens, UniProt P13569, N1303K); experiment: Potentiation of CFTR N1303K mutant (unknown origin) transfected in […] FRT cells in presence of forskolin/VX-770; format: cell-based
Sequence (P13569 whole entry N1303K): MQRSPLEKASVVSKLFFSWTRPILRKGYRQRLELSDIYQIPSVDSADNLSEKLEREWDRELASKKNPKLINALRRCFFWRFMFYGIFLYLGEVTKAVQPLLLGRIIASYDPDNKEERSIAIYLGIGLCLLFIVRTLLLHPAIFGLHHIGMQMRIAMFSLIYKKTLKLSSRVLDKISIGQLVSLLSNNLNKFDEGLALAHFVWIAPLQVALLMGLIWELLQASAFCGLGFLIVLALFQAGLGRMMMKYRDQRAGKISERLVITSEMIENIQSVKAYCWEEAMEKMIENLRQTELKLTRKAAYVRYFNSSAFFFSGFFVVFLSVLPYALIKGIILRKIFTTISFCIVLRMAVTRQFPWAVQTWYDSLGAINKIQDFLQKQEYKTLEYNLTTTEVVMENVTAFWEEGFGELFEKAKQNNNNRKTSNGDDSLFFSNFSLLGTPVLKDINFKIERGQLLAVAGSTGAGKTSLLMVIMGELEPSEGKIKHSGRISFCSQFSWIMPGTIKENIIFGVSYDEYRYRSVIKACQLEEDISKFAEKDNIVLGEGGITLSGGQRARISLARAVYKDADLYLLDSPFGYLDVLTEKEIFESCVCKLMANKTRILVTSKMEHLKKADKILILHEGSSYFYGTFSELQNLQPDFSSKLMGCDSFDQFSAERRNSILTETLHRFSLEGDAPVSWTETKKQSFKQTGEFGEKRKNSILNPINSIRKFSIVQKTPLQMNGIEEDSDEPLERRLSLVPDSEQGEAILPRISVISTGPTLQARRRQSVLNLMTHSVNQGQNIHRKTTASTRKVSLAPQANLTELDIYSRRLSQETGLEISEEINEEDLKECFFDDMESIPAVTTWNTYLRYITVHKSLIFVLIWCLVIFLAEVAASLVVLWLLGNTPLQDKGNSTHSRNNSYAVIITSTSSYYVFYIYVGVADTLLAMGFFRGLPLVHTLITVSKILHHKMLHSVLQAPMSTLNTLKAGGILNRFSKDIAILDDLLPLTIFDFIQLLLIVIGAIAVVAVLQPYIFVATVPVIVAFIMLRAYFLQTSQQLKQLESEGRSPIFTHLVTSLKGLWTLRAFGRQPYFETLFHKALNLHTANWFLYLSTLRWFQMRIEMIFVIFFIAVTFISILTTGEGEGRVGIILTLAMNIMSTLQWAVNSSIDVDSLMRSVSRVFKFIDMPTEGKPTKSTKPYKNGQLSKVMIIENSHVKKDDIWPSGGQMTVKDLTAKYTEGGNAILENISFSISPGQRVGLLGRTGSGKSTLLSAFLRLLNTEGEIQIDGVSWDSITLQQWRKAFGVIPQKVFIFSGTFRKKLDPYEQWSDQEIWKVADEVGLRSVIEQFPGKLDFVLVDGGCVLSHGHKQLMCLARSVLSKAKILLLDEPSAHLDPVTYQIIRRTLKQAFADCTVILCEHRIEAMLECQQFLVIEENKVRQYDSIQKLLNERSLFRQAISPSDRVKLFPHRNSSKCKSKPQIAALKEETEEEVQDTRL
readout.name: EC50 (nM)
Return type: number; implicit unit nM.

// query I have this molecule here, CCCCN1CC(S(=O)(=O)Nc2ccc(CC)cc2)c2cccnc21 (stereo unspecified) , and I need its recorded EC50.
// result 1900
